Target: S. pyogenes SKKanGAS, kanamycin survival, BacTiterGlo, 6 h
Assay: S. pyogenes SKKanGAS kanamycin growth inhibitors – SKKanGAS strain, luminescence, dose confirmation, streptokinase promoter inhibitor project, dose response (AID 1902);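 also: lower survival reflects blocked streptokinase promoter driving kanamycin resistance gene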
Calls of active or inactive are those of the source.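 The calls were made as follows: active = EC50 no more than a set limit of log units above the highest dose; inactive = the rest.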
Outcome codes: active, inactive

[
  {
    "molecule": "CC(C)c1ccc2[nH]c3c(c2c1)CCC/C3=N\\NC(=O)c1ccncc1",
    "category_label": "active"
  },
  {
    "molecule": "CCN1/C(=C\\c2ccc3cc(C)ccc3[n+]2CC)Sc2cc(C)c(C)cc21",
    "category_label": "active"
  },
  {
    "molecule": "Cc1ccc2nc(-c3ccc(NS(=O)(=O)c4ccc(F)cc4)cc3)sc2c1",
    "category_label": "active"
  },
  {
    "molecule": "CCCCCCCCCc1nc2sc3c(c2c(=O)n1NC(=O)c1ccc([N+](=O)[O-])cc1)CC(C)(C)OC3",
    "category_label": "active"
  },
  {
    "molecule": "Cc1cc(C)c(OCC(=O)Nc2nc(-c3ccccn3)cs2)c(C)c1",
    "category_label": "active"
  },
  {
    "molecule": "NNC(=O)CSc1nc(-c2ccccc2)nc2c1CCCC2",
    "category_label": "inactive"
  },
  {
    "molecule": "COc1ccc(-c2coc3c(C)c4oc(=O)c(CCC(=O)O)c(C)c4cc23)cc1",
    "category_label": "active"
  },
  {
    "molecule": "Cc1cccc(-n2ncc3c2CCCC3NC(=O)CCN2Cc3ccccc3C2=O)c1C (stereo not given)",
    "category_label": "inactive"
  },
  {
    "molecule": "FC(F)Sc1ccc(NC(=S)NC(c2ccccc2)c2ccccc2)cc1",
    "category_label": "active"
  },
  {
    "molecule": "CC(C)(C)c1ccc(C(=O)CC(=O)c2cc(Cl)ccc2O)cc1",
    "category_label": "active"
  }
]

====

Biological target: S. pyogenes SKKanGAS, kanamycin survival, BacTiterGlo, 6 h
Experiment: S. pyogenes SKKanGAS kanamycin growth inhibitors – SKKanGAS strain, luminescence, dose confirmation, streptokinase promoter inhibitor project, dose response (AID 1902);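 also: lower survival reflects blocked streptokinase promoter driving kanamycin resistance gene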
The reader will find reported EC50 values listed item by item below.

[
  {
    "compound": "O=C(O)c1cccc2c(-c3ccccc3)c(-c3ccccc3)[nH]c12",
    "EC50": "8.51 µM"
  },
  {
    "compound": "CC(C)C(=O)NC(c1ccccc1)c1cc([N+](=O)[O-])c2cccnc2c1O (stereo not given)",
    "EC50": "2.48 µM"
  },
  {
    "compound": "Cc1ccccc1N1CCN(S(=O)(=O)c2nnc(NC(=O)c3ccco3)s2)CC1",
    "EC50": "4.46 µM"
  },
  {
    "compound": "CCC(=O)Nc1nc2ccccc2n1Cc1ccccc1C",
    "EC50": "1.62 µM"
  },
  {
    "compound": "Cc1ccc(C(=O)NC(=S)NNC(=O)COc2ccccc2C)cc1",
    "EC50": "0.161 µM"
  },
  {
    "compound": "Cc1cc([N+](=O)[O-])cc(/C=N/n2c(C)nc3ccccc3c2=O)c1O",
    "EC50": "4.07 µM"
  },
  {
    "compound": "Cc1ccc(C2C(C(=O)c3cc4ccccc4o3)=C(O)C(=O)N2c2cc(C)on2)cc1 (stereo not given)",
    "EC50": "2.1 µM"
  },
  {
    "compound": "CCCCOc1ccc(-c2c(C#N)c(N)nc(SCC(N)=O)c2C#N)cc1",
    "EC50": "4.61 µM"
  },
  {
    "compound": "Cc1cc(C)cc(-n2c(C)cc(/C=C3\\C(=N)N4N=C(CC(C)C)SC4=NC3=O)c2C)c1",
    "EC50": "2.67 µM"
  },
  {
    "compound": "CCCc1ccc(OCC(=O)NNC(=S)NC(=O)c2ccco2)cc1",
    "EC50": "< 0.06 µM"
  }
]
